target: HLA-A*01:01; assay: IEDB peptide-MHC binding, purified MHC/direct/fluorescence; filed as Kd, often an IC50 or EC50 that approximates it; bounds were set here for any values at or beyond the usual limits of such assays; details: source organism: Buffalopox virus
pKd: −log10 of the molar value.
measurement_label: pKd

Sample RYPGVMYAF ; pKd observed: ≤ 4.70

====

target: HLA-A*03:01; test: IEDB peptide-MHC binding, purified MHC/competitive/radioactivity; filed as Kd, often an IC50 or EC50 that approximates it; bounds were set here for any values at or beyond the usual limits of such assays; details: source organism: Dengue virus 2 Jamaica/1409/1983
measurement_label: pKd
Just the number, please; pKd means minus log10 of the concentration in mol/L.

Per the reported HLA-A*03:01 data, VSILASSLLK has pKd of 8.05
